I'd appreciate it if you could supply Cynomolgus Monkey IL-33 Binding Amount (RU) values for the items below.
- STUDY_TARGET: T1, 6His-AviTag-linked cynomolgus monkey IL-33 (residues 112 to 269) (cynomolgus monkey, UniProt O95760 112-269 (human entry), biotin on the AviTag portion (BirA) in the SPR of Example 7; used without biotinylation in Example 10)
- T1 construct: GenBank EHH57404 printed; also called cynomolgus monkey IL-33 protein; mature cynomolgus monkey IL-33
- T1 chain: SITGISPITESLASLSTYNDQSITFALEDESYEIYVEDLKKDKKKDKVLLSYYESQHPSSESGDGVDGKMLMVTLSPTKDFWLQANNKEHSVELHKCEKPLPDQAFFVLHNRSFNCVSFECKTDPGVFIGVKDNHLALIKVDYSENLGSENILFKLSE
- PROTOCOL: SPR, IL-33 on chip, Fab supernatant as analyte
Numbers only here, please. The scale is RU.

Answer with reported Cynomolgus Monkey IL-33 Binding Amount (RU) of A12-1H08 (Fab) (Fab, V domains shown, Fab secreted by E. coli, tested as culture supernatant; also called V4) VH: EVQLLESGGGLVQPGGSLRLSCAASGFTFSDYYMDWVRQAPGKGLEWVSSISRASSYVYYADSVKGRFTISRDNSKNTLYLQMNSLRAEDTAVYYCARDIGGMDVWGQGTLVTVSS VL: QSVLTQPPSASGTPGQRVTISCTGSSSNIGAVYNVHWYQQLPGTAPKLLIYRNNQRPSGVPDRFSGSKSGTSASLAISGLRSEDEADYYCQSYDSSRWVFGGGTKLTVL 102

Answer with reported Cynomolgus Monkey IL-33 Binding Amount (RU) of A25-2C06 (Fab) (Fab, V domains shown, Fab secreted by E. coli, tested as culture supernatant; also called V12) VH: EVQLLESGGGLVQPGGSLRLSCAASGFTFSNYYMHWVRQAPGKGLEWVSSISARSSYIYYADSVKGRFTISRDNSKNTLYLQMNSLRAEDTAVYYCARLATRNNAFDIWGQGTLVTVSS VL: QSVLTQPPSASGTPGQRVTISCSGSSSNIGRNAVNWYQQLPGTAPKLLIYASNMRVIGVPDRFSGSKSGTSASLAISGLRSEDEADYYCGAWDDSQKRYVFGGGTKLTVL 501

Answer with reported Cynomolgus Monkey IL-33 Binding Amount (RU) of A28-2G07 (Fab) (Fab, V domains shown, Fab secreted by E. coli, tested as culture supernatant; also called V27) VH: EVQLLESGGGLVQPGGSLRLSCAASGFTFSSYYMHWVRQAPGKGLEWVSSISARSSYIYYADSVKGRFTISRDNSKNTLYLQMNSLRAEDTAVYYCARLATRRIAFDIWGQGTLVTVSS VL: QSVLTQPPSASGTPGQRVTISCSGSSSNIGRNAVNWYQQLPGTAPKLLIYASNMRRPGVPDRFSGSKSGTSASLAISGLRSEDEADYYCSAWDDSQKAGVFGGGTKLTVL 259
